EXPERIMENTAL ENDPOINT: melting point

O=C(O)c1ccc(-c2ccco2)nc1 = 200 °C

query: Which melting point is listed for CN1C2CCC1C(C(=O)O)C(O)C2 (stereo not given) ?
result: 205 °C

query: Which melting point is listed for "O=C(O)C=CC(=O)Nc1cccc(C(F)(F)F)c1" ?
result: 161 to 164 °C

query: Which melting point is listed for "Clc1ccc2scc(CBr)c2c1" ?
result: 129 to 130 °C

query: Which melting point is listed for "COc1ccc2[nH]c(C)c(CC(=O)O)c2c1" ?
result: 162 to 165 °C

* * *

EXPERIMENTAL ENDPOINT: melting point

Look over these answered cases.
Cc1ccc(C(=O)c2ccccc2)cc1 = 59.5 °C
COC(=O)c1cc2oc(C=O)cc2n1C = 162 to 163 °C
Nc1ccc(Oc2ccccc2)nc1 = 71 to 72 °C

Query molecule follows.
query: Which melting point is listed for C/C=C/C1Nn2c(nnc2-c2ccc(OC)cc2)S1 (centres undefined) ?
result: 80 to 82 °C

* * *

// melting point lookup, one value per entry

Look over these answered cases.
CCOC(=O)c1cc2cc(C=O)c(N)cc2[nH]c1=O = 154 to 157 °C
C/C(=N\c1ccc(C(=O)O)cc1)c1c(O)c2ccccc2n(-c2ccccc2)c1=O = 236 to 238 °C
CC(=O)c1cccc(Cl)c1O = 80 to 83 °C
Nc1cc(Br)ccc1Cl = 48 to 49 °C

query: Which melting point is listed for "O=C(O)C(CBr)CBr" ?
result: 100 °C

query: Which melting point is listed for "N=C(N)C(F)(F)C(F)(F)C(F)(F)F" ?
result: 49 to 51 °C

* * *

// melting point lookup, one value per entry
Could you give me the number in °C? Just the number is fine.

CN(CC(=O)O)C(=O)OC(C)(C)C = 91
ClC(Cl)(Cl)C(Cl)(Cl)Cl = 187

query: Which melting point is listed for "COC(=O)CCc1cc(CCC(=O)OC)c([N+](=O)[O-])cc1[N+](=O)[O-]" ?
result: 71

* * *

// melting point lookup, one value per entry

Look over these answered cases.
O=C1N[C@H](Cc2ccccc2)CO1 = 87 to 90 °C
CC1(C(=O)O)CCC(CCc2ccccc2)C1(C)C (stereo unspecified) = 118 °C
CSC(S)=NCc1ccc(CN)cc1 = 152 to 153 °C

query: Which melting point is listed for "Clc1ccc(Oc2ccccc2)cc1" ?
result: -8 °C

query: Which melting point is listed for "Cc1cc2c3c(c1)c(O)c(-c1ccccc1)c(=O)n3CCC2" ?
result: 215 to 218 °C

query: Which melting point is listed for "Brc1cccc(Oc2ccccn2)c1" ?
result: 63 to 64 °C

* * *

EXPERIMENTAL ENDPOINT: melting point

Cc1ccc(N)cc1NS(C)(=O)=O = 170 to 172 °C

query: Which melting point is listed for "CC(=O)C12CC3CC(CC(C3)C1)C2" ?
result: 53 to 55 °C

query: Which melting point is listed for "Nc1ccc(-n2cncn2)cc1" ?
result: 142 to 144 °C

query: Which melting point is listed for "N#CCC(=O)c1ccc(OC(F)(F)F)cc1" ?
result: 82 to 84 °C

* * *

// melting point lookup, one value per entry
Could you give me the number in °C? Just the number is fine.

Look over these answered cases.
C/C(=N\O)C1CC2(C)CCC1C2(C)C (stereo not given) = 95.5
Cc1c(Cl)c(Cl)cc(Cl)c1Cl = 93.5

query: Which melting point is listed for "OCc1ccccn1" ?
result: 5

query: Which melting point is listed for C=CCCCCCCCCCCCCCCCCC1CC(=O)OC1=O (stereo not given) ?
result: 67.2

query: Which melting point is listed for "CCCN(CCC)c1c([N+](=O)[O-])cc(C(F)(F)F)c(N)c1[N+](=O)[O-]" ?
result: 124

query: Which melting point is listed for "Nc1nnc(C(F)(F)F)s1" ?
result: 224

query: Which melting point is listed for "O=C1c2ccccc2C(=O)c2c(Nc3cccc4c3C(=O)c3ccccc3C4=O)cccc21" ?
result: 300

query: Which melting point is listed for CN(C)c1ccc(C2Nn3c(nnc3-c3ccc([N+](=O)[O-])cc3)S2)cc1 (stereo not given) ?
result: 176

query: Which melting point is listed for "COC(=O)c1cc([N+](=O)[O-])ccc1OC" ?
result: 101

* * *

// melting point lookup, one value per entry

Look over these answered cases.
Cc1ccc(S(=O)(=O)OCC2CCC(=O)N2)cc1 (stereo not given) = 122 to 129 °C
O=C(CBr)c1ccnc(Cl)c1 = 55 to 56.5 °C

Query molecule follows.
query: Which melting point is listed for "OCCN1CCN(c2nc3ccc(Cl)cc3s2)CC1" ?
result: 128 to 130 °C

* * *

EXPERIMENTAL ENDPOINT: melting point (°C)
Could you give me the number in °C? Just the number is fine.

CCN1CCN(C(=O)N[C@@H](C(=O)O)c2ccc(O)cc2)C(=O)C1=O = 205
CCCC(=O)Nc1ccc(O)cc1 = 140
NCP(=O)(O)O = 300

query: Which melting point is listed for "O=C(O)C1c2ccccc2Oc2ccccc21" ?
result: 217

query: Which melting point is listed for "O=C(O)CC(F)(F)C(=O)O" ?
result: 142

query: Which melting point is listed for "O=Cc1ccc2nccn2c1" ?
result: 152

query: Which melting point is listed for CC(=O)CCc1ccc(CCC(C)NC(=O)c2ccccc2)cc1 (stereo not given) ?
result: 122

* * *

EXPERIMENTAL ENDPOINT: melting point

Look over these answered cases.
COc1ccc(-c2cc[nH]n2)cc1 = 127 to 130 °C
COC1C(O)C(C)OC(OC2CCC3(C=O)C(CCC4C3CCC3(C)C(C5=CC(=O)OC5)CCC43O)C2)C1O (stereo not drawn) = 162 °C
CCOC(=O)c1c(NC(=O)CN2CCCCC2)sc2c1CCCC2 = 100 to 101 °C
Cn1cc(NC(=O)OC(C)(C)C)cc1C(=O)O = 138 to 143 °C
CC(C)(C)OC(=O)N[C@]1(C(=O)O)C[C@@H]1c1ccccc1 = 180 to 182 °C

query: Which melting point is listed for "O=c1on(-c2ccccc2)c(Br)c1-c1ccccc1" ?
result: 165 to 166 °C

query: Which melting point is listed for "Brc1cccc2c1Oc1ccccc1O2" ?
result: 104 °C

query: Which melting point is listed for "O=[N+]([O-])c1ccc(Br)c([N+](=O)[O-])c1" ?
result: 72 °C

query: Which melting point is listed for "CN=C(NC)NCc1ccccc1" ?
result: 196 °C

query: Which melting point is listed for "O=C(Oc1c(F)c(F)c(F)c(F)c1F)c1cccnc1" ?
result: 65.5 to 67 °C

query: Which melting point is listed for "O=C1c2ccccc2C(=O)N1CCNCCN1C(=O)c2ccccc2C1=O" ?
result: 132 °C

query: Which melting point is listed for O=C(C1=NOC2C(=O)N(c3ccc(Br)cc3)C(=O)C12)c1ccco1 (stereo not drawn) ?
result: 176 °C

* * *

EXPERIMENTAL ENDPOINT: melting point

query: Which melting point is listed for "O=C(CBr)c1ccsc1" ?
result: 61 to 62 °C

query: Which melting point is listed for "CSc1nc(N)nc(N2CCCCC2)n1" ?
result: 156 to 158 °C

query: Which melting point is listed for "O=[N+]([O-])c1ccccc1N1CCCCC1" ?
result: 77 to 79 °C

* * *

// melting point lookup, one value per entry

Look over these answered cases.
O=C(Nc1ccccc1)Nc1nnc(C(F)(F)F)s1 = 149 to 151 °C
CC12CC3CC(Br)(C1)CC(C(=O)O)(C3)C2 (configuration not stated) = 118 to 120 °C
CC(=O)Nc1ccccc1C(=O)CCl = 112 to 113 °C
Cc1nc2scc(-c3ccccc3)c2c(=O)n1NC(=O)c1cccc(C(F)(F)F)c1 = 134 to 138 °C
Cc1csc(N)c1-c1nc2ccccc2s1 = 111 to 112 °C

query: Which melting point is listed for "NC(=NO)c1cccc(C(=O)O)c1" ?
result: 196 to 197 °C

query: Which melting point is listed for "CC(=O)OC[C@H]1O[C@@H](OC(C)=O)[C@H](OC(C)=O)[C@@H]1OC(C)=O" ?
result: 79 to 81 °C

query: Which melting point is listed for "Cc1nc2ccccc2c(C(=O)O)c1N" ?
result: 204 to 205 °C

query: Which melting point is listed for "CC(C)(C)OC(=O)NCc1nnc(S)n1C1CC1" ?
result: 193 to 194 °C

query: Which melting point is listed for "O=c1[nH]c2scc(-c3ccccc3)c2c(=O)n1-c1ccc(F)cc1" ?
result: 300 to 302 °C

query: Which melting point is listed for "Cc1n[nH]c(C)c1C(=O)O" ?
result: 273 to 275 °C

query: Which melting point is listed for COc1ccc(C2c3cc(OC)c(OC)cc3CCN2C(C)=O)cc1 (configuration not stated) ?
result: 105 to 107 °C

Source listed as a melting point compilation (Tetko et al.).
